Origin of the recorded values: the Kinase Knowledgebase extract (Sharma et al. 2016)

system: CDK2 (human) (UniProt P24941)
methodSummary: Cell-Based Assay
assayConditions: hdf-3
pIC50: −log10 of the molar value.
valueKind: pIC50

> print(dat)
                                 smilestext  valuekind   val
1  NS(=O)(=O)c1ccc(NN=C2C(=O)Nc3ccc(-c4cnco4)cc32)cc1      pIC50  6.46

---

// reported IC50 per item
system: CDK2 (human)
methodSummary: Cell-Based Assay
assayConditions: mda-mb-468
valueKind: IC50

> print(dat)
                                 smilestext        val
1  NS(=O)(=O)c1ccc(NN=C2C(=O)Nc3ccc(-c4cnco4)cc32)cc1     350 nM
2  CNS(=O)(=O)Cc1ccc(NN=C2C(=O)Nc3cc(C)c(O)c(C)c32)cc1     300 nM
3  CN(C)S(=O)(=O)c1ccc(N/C=C2\C(=O)Nc3ccc(-c4cnco4)cc32)cc1  > 5000 nM
